Where do these numbers come from? They come from ChEMBL document CHEMBL1149864.

Experiment: Chemical stability assessed as half life at 30 degC
Assay type: physicochemical
READOUT_NAME: half-life

[[record]]
smiles = "C1#Cc2ccccc2C#CCNCC1.Cc1ccc(S(=O)(=O)O)cc1"
readout_name = "half-life"
measurement = "32.1 days"


====

This listing pairs compounds with measured half-life.
Assay: Chemical stability assessed as half life at 70 degC
Format: physicochemical
READOUT_NAME: half-life (h)

[[record]]
smiles = "O=[N+]([O-])c1ccc(S(=O)(=O)N2CC#Cc3cc([N+](=O)[O-])c([N+](=O)[O-])cc3C#CCC2)cc1"
readout_name = "half-life"
measurement = 9.5

[[record]]
smiles = "Cc1ccc(S(=O)(=O)N2CC#Cc3ccccc3C#CCC2)cc1"
readout_name = "half-life"
measurement = 48

[[record]]
smiles = "O=[N+]([O-])c1ccc(S(=O)(=O)N2CC#Cc3ccc([N+](=O)[O-])cc3C#CCC2)cc1"
readout_name = "half-life"
measurement = 12


====

Assay: Chemical stability assessed as half life at 60 degC
Format: physicochemical
READOUT_NAME: half-life (h)

[[record]]
smiles = "O=[N+]([O-])c1ccc(S(=O)(=O)N2CC#Cc3ccc([N+](=O)[O-])cc3C#CCC2)cc1"
readout_name = "half-life"
unit = "h"
measurement = 138

